Record form. Attribute: EC50. Fill in for each entry.
Target: Retinoic acid receptor gamma (Homo sapiens, UniProt P13631)
Sequence (P13631 whole entry, canonical isoform): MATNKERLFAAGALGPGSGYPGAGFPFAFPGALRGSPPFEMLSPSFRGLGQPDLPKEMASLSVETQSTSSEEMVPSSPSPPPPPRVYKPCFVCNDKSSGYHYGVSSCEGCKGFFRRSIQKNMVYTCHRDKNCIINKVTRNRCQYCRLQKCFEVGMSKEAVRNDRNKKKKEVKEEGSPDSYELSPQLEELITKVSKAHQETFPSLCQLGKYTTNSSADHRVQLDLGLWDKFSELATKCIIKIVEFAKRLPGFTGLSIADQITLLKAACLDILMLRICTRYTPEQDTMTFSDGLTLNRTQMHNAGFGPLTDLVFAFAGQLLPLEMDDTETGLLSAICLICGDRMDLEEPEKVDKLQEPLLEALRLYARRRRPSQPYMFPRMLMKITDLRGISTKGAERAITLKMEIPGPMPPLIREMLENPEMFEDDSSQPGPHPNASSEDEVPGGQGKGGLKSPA
Experiment: Effective concentration against retinoid receptor isoform (RAR gamma) expressed in CV-1 cells

Problem: Returns the measured EC50 for the input compound. Input: "CC(C)c1cc2c(cc1C(=O)c1ccc(C(=O)O)cc1)C(C)(C)CCC2(C)C"
Result: > 10 µM

Problem: Returns the measured EC50 for the input compound. Input: "CC1(C)CCC(C)(C)c2cc(C(=O)c3ccc(C(=O)O)cc3)c(F)cc21"
Result: 1.02 µM

Problem: Returns the measured EC50 for the input compound. Input: "C=C(c1ccc(C(=O)O)cc1)c1cc2c(cc1OC)C(C)(C)CCC2(C)C"
Result: > 10 µM

Problem: Returns the measured EC50 for the input compound. Input: "C=C(c1ccc(C(=O)O)cc1)c1cc2c(cc1CCC)C(C)(C)CCC2(C)C"
Result: > 10 µM

Problem: Returns the measured EC50 for the input compound. Input: "C=C(c1ccc(C(=O)O)cc1)c1cc2c(cc1O)C(C)(C)CCC2(C)C"
Result: > 10 µM

Problem: Returns the measured EC50 for the input compound. Input: "COc1cc2c(cc1C(=O)c1ccc(C(=O)O)cc1)C(C)(C)CCC2(C)C"
Result: > 10 µM

Problem: Returns the measured EC50 for the input compound. Input: "CCCc1cc2c(cc1C(=O)c1ccc(C(=O)O)cc1)C(C)(C)CCC2(C)C"
Result: > 10 µM

Problem: Returns the measured EC50 for the input compound. Input: "C=C(c1ccc(C(=O)O)cc1)c1ccc2c(c1)C(C)(C)CCC2(C)C"
Result: 0.266 µM

Problem: Returns the measured EC50 for the input compound. Input: "CC1(C)CCC(C)(C)c2cc(C(=O)c3ccc(C(=O)O)cc3)c(Cl)cc21"
Result: > 10 µM

Problem: Returns the measured EC50 for the input compound. Input: "C=C(c1ccc(C(=O)O)cc1)c1cc2c(cc1F)C(C)(C)CCC2(C)C"
Result: 0.397 µM

Problem: Returns the measured EC50 for the input compound. Input: "C=C(c1ccc(C(=O)O)cc1)c1cc2c(cc1Br)C(C)(C)CCC2(C)C"
Result: > 10 µM

Problem: Returns the measured EC50 for the input compound. Input: "C=C(c1ccc(C(=O)O)cc1)c1cc2c(cc1CC)C(C)(C)CCC2(C)C"
Result: > 10 µM

---

Target: Retinoic acid receptor beta (Homo sapiens)
Sequence (P10826 whole entry, canonical isoform): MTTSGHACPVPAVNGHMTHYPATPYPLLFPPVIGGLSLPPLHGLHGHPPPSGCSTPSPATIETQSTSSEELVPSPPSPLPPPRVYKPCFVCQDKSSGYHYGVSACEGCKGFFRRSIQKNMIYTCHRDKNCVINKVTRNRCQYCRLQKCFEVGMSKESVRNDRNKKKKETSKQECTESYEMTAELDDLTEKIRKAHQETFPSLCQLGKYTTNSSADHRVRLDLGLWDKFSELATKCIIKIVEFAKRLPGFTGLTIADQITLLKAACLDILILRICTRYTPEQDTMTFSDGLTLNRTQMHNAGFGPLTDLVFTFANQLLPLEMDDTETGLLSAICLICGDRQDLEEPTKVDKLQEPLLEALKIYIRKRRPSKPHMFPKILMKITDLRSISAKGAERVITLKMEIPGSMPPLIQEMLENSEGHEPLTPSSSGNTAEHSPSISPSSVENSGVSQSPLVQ
Experiment: Effective concentration against retinoid receptor isoform (RAR beta) expressed in CV-1 cells
recorded.metric: EC50

Problem: Given the entry "C=C(c1ccc(C(=O)O)cc1)c1cc2c(cc1CCC)C(C)(C)CCC2(C)C" , what EC50 was observed with Retinoic acid receptor beta (Homo sapiens)?
Result: > 10 µM

Problem: Given the entry "COc1cc2c(cc1C(=O)c1ccc(C(=O)O)cc1)C(C)(C)CCC2(C)C" , what EC50 was observed with Retinoic acid receptor beta (Homo sapiens)?
Result: > 10 µM

Problem: Given the entry "CCCc1cc2c(cc1C(=O)c1ccc(C(=O)O)cc1)C(C)(C)CCC2(C)C" , what EC50 was observed with Retinoic acid receptor beta (Homo sapiens)?
Result: > 10 µM

Problem: Given the entry "C=C(c1ccc(C(=O)O)cc1)c1cc2c(cc1OC)C(C)(C)CCC2(C)C" , what EC50 was observed with Retinoic acid receptor beta (Homo sapiens)?
Result: > 10 µM

Problem: Given the entry "C=C(c1ccc(C(=O)O)cc1)c1cc2c(cc1C(C)C)C(C)(C)CCC2(C)C" , what EC50 was observed with Retinoic acid receptor beta (Homo sapiens)?
Result: > 10 µM

Problem: Given the entry "CC1(C)CCC(C)(C)c2cc(C(=O)c3ccc(C(=O)O)cc3)c(Cl)cc21" , what EC50 was observed with Retinoic acid receptor beta (Homo sapiens)?
Result: > 10 µM

Problem: Given the entry "CC1(C)CCC(C)(C)c2cc(C(=O)c3ccc(C(=O)O)cc3)c(F)cc21" , what EC50 was observed with Retinoic acid receptor beta (Homo sapiens)?
Result: 0.395 µM

Problem: Given the entry "C=C(c1ccc(C(=O)O)cc1)c1cc2c(cc1CC)C(C)(C)CCC2(C)C" , what EC50 was observed with Retinoic acid receptor beta (Homo sapiens)?
Result: > 10 µM

Problem: Given the entry "C=C(c1ccc(C(=O)O)cc1)c1cc2c(cc1F)C(C)(C)CCC2(C)C" , what EC50 was observed with Retinoic acid receptor beta (Homo sapiens)?
Result: 0.337 µM

Problem: Given the entry "C=C(c1ccc(C(=O)O)cc1)c1cc2c(cc1O)C(C)(C)CCC2(C)C" , what EC50 was observed with Retinoic acid receptor beta (Homo sapiens)?
Result: 2.24 µM

Problem: Given the entry "CCc1cc2c(cc1C(=O)c1ccc(C(=O)O)cc1)C(C)(C)CCC2(C)C" , what EC50 was observed with Retinoic acid receptor beta (Homo sapiens)?
Result: > 10 µM

Problem: Given the entry "C=C(c1ccc(C(=O)O)cc1)c1cc2c(cc1Br)C(C)(C)CCC2(C)C" , what EC50 was observed with Retinoic acid receptor beta (Homo sapiens)?
Result: > 10 µM

Problem: Given the entry "C=C(c1ccc(C(=O)O)cc1)c1cc2c(cc1Cl)C(C)(C)CCC2(C)C" , what EC50 was observed with Retinoic acid receptor beta (Homo sapiens)?
Result: 0.436 µM

Problem: Given the entry "CC(C)c1cc2c(cc1C(=O)c1ccc(C(=O)O)cc1)C(C)(C)CCC2(C)C" , what EC50 was observed with Retinoic acid receptor beta (Homo sapiens)?
Result: > 10 µM

Problem: Given the entry "CC1(C)CCC(C)(C)c2cc(C(=O)c3ccc(C(=O)O)cc3)c(O)cc21" , what EC50 was observed with Retinoic acid receptor beta (Homo sapiens)?
Result: > 10 µM

Problem: Given the entry "C=C(c1ccc(C(=O)O)cc1)c1ccc2c(c1)C(C)(C)CCC2(C)C" , what EC50 was observed with Retinoic acid receptor beta (Homo sapiens)?
Result: 0.304 µM

Problem: Given the entry "CC1(C)CCC(C)(C)c2cc(C(=O)c3ccc(C(=O)O)cc3)c(Br)cc21" , what EC50 was observed with Retinoic acid receptor beta (Homo sapiens)?
Result: > 10 µM

---

recorded.metric: pEC50
Value format note: pEC50 is -log10 of concentration (mol/L); just state the number.

Problem: Given the entry "C=C(c1ccc(C(=O)O)cc1)c1cc2c(cc1O)C(C)(C)CCC2(C)C" , what pEC50 was observed with Retinoic acid receptor RXR-alpha (Homo sapiens)?
Result: 6.34

Problem: Given the entry "CC(C)c1cc2c(cc1C(=O)c1ccc(C(=O)O)cc1)C(C)(C)CCC2(C)C" , what pEC50 was observed with Retinoic acid receptor RXR-alpha (Homo sapiens)?
Result: 6.42

Problem: Given the entry "C=C(c1ccc(C(=O)O)cc1)c1cc2c(cc1OC)C(C)(C)CCC2(C)C" , what pEC50 was observed with Retinoic acid receptor RXR-alpha (Homo sapiens)?
Result: 7.08

Problem: Given the entry "C=C(c1ccc(C(=O)O)cc1)c1cc2c(cc1Cl)C(C)(C)CCC2(C)C" , what pEC50 was observed with Retinoic acid receptor RXR-alpha (Homo sapiens)?
Result: 7.28

---

Target: UniProt P13631
Experiment: Effective concentration against retinoid receptor isoform (RAR gamma) expressed in CV-1 cells
Record form. Attribute: EC50. Fill in for each entry.

Problem: Returns the measured EC50 for the input compound. Input: "CCc1cc2c(cc1C(=O)c1ccc(C(=O)O)cc1)C(C)(C)CCC2(C)C"
Result: > 10 µM

Problem: Returns the measured EC50 for the input compound. Input: "CC1(C)CCC(C)(C)c2cc(C(=O)c3ccc(C(=O)O)cc3)c(Br)cc21"
Result: > 10 µM

Problem: Returns the measured EC50 for the input compound. Input: "C=C(c1ccc(C(=O)O)cc1)c1cc2c(cc1Cl)C(C)(C)CCC2(C)C"
Result: 1.45 µM

Problem: Returns the measured EC50 for the input compound. Input: "C=C(c1ccc(C(=O)O)cc1)c1cc2c(cc1C(C)C)C(C)(C)CCC2(C)C"
Result: > 10 µM

Problem: Returns the measured EC50 for the input compound. Input: "CC1(C)CCC(C)(C)c2cc(C(=O)c3ccc(C(=O)O)cc3)c(O)cc21"
Result: > 10 µM

---

Target: Retinoic acid receptor alpha (Homo sapiens)
Sequence (P10276 whole entry, canonical isoform): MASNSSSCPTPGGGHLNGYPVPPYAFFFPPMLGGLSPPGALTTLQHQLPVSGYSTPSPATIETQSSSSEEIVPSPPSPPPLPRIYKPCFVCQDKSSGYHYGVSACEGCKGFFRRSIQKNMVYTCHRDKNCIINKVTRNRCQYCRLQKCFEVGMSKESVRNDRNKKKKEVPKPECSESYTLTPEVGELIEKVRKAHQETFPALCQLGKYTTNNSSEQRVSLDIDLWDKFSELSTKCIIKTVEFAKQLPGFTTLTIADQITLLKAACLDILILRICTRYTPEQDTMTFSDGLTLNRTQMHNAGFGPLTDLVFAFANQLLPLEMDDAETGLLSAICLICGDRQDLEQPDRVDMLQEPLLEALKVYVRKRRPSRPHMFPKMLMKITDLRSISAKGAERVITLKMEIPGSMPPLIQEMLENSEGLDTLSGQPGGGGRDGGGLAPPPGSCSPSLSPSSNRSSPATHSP
Assay: Effective concentration against retinoid receptor isoform (RAR alpha) expressed in CV-1 cells
Record form. Attribute: EC50. Fill in for each entry.

Problem: Returns the measured EC50 for the input molecule. Input: "C=C(c1ccc(C(=O)O)cc1)c1cc2c(cc1CC)C(C)(C)CCC2(C)C"
Result: > 10 µM

Problem: Returns the measured EC50 for the input molecule. Input: "C=C(c1ccc(C(=O)O)cc1)c1cc2c(cc1Br)C(C)(C)CCC2(C)C"
Result: > 10 µM

Problem: Returns the measured EC50 for the input molecule. Input: "CC1(C)CCC(C)(C)c2cc(C(=O)c3ccc(C(=O)O)cc3)c(F)cc21"
Result: 2.86 µM

Problem: Returns the measured EC50 for the input molecule. Input: "CCCc1cc2c(cc1C(=O)c1ccc(C(=O)O)cc1)C(C)(C)CCC2(C)C"
Result: > 10 µM

Problem: Returns the measured EC50 for the input molecule. Input: "C=C(c1ccc(C(=O)O)cc1)c1ccc2c(c1)C(C)(C)CCC2(C)C"
Result: > 10 µM

The reported measurements were obtained from ChEMBL document CHEMBL1127727.
